Test system: Zymoseptoria tritici (SEPTTR-184)
TEST PROTOCOL: Cyp51 dsRNA tile (fragment) foliar application bioassay (Example 6)
Type: in vivo
RUN PARAMETERS: 1 day protectant; rate 200 ppm; average of 2 trials
PROPERTY: Disease Control (%) SEPTTR-184 1DP
Number only, in %; omit the unit.

Prompt line: Any idea what Disease Control (%) SEPTTR-184 1DP was measured for MgCyp51-T2: dsRNA tile of Zymoseptoria tritici Cyp51, 165 bp, location 48-212 (nucleic acid, listed as Zymoseptoria tritici) CCAGACCAGCCTCTGGAAACTTGTCGGACTTGGATTCCTCGCCTTCAGCACGCTCGCCATCCTCCTCAATGTCCTCTCACAACTTCTCTTCCGTGGCAAGTTGTCCGATCCGCCACTCGTATTCCACTGGGTGCCCTTCATCGGAAGCACCATCACATACGGCAT ?
Response line: 75

Prompt line: Quick check: Disease Control (%) SEPTTR-184 1DP of MgCyp51-T11: dsRNA tile of Zymoseptoria tritici Cyp51, 172 bp, location 775-946 (nucleic acid, listed as Zymoseptoria tritici) TCCGAGACATACATGTCGATCATTCAGAAGAGACGAGAGTCCAAAACGGGCGAACATGAGGAAGACATGATCCACAACTTGATGCAGTGCAAATACAAGGACGGCAATGCCATTCCCGACAAGGAGATTGCTCATATGATGATTGCGCTGCTCATGGCCGGCCAGCACTCTT ?
Response line: 61

The measurements presented in this section are drawn from patent US20180320179A1.
